Catalogue of compounds with associated pIC50
Target: PBP2b/H (Bacillus subtilis)
Sequence (Q07868 whole entry): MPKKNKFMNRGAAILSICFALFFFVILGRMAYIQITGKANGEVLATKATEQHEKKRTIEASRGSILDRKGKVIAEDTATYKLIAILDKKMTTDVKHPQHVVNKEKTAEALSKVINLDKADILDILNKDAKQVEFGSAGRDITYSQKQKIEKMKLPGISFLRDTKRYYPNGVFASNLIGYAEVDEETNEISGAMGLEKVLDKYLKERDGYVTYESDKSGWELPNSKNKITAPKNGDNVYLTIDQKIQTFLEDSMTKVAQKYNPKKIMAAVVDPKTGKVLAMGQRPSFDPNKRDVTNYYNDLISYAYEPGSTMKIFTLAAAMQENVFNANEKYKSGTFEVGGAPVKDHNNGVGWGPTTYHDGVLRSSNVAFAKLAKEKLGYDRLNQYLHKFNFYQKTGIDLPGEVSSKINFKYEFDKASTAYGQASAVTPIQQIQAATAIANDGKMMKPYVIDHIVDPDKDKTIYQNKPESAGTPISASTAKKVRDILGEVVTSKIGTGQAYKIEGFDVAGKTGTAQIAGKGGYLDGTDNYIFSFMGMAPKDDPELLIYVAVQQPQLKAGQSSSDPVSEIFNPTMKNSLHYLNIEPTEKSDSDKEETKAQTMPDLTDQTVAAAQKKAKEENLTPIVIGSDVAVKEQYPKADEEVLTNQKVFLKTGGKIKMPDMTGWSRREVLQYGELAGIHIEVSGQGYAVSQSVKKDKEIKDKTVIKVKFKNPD
Assay: Fluorescent whole cell β-lactam titration with Boc-FL readout, SDS-PAGE
On this scale, pIC50 is minus log10 of a concentration expressed in M (mol/L).

Reported pIC50 for NC(=O)c1cc[n+](CC2=C(C(=O)O)N3C(=O)[C@@H](NC(=O)[C@@H](c4ccccc4)S(=O)(=O)[O-])[C@H]3SC2)cc1 [cefsulodin] : what is it?
5.91

And then CC1(C)S[C@@H]2[C@H](NC(=O)[C@H](N)c3ccc(O)cc3)C(=O)N2[C@H]1C(=O)O [amoxicillin] , what is it?
6.62

And then C[C@@H](O)[C@H]1C(=O)N2C(C(=O)O)=C([C@H]3CCCO3)S[C@H]12 [faropenem] , what is it?
7.75

And then CC1(C)S[C@@H]2[C@H](NC(=O)Cc3ccccc3)C(=O)N2[C@H]1C(=O)O [penicillin G] , what is it?
7.25

----------
Biological target: PBP4 (Bacillus subtilis, UniProt P40750)
Sequence (P40750 22-624): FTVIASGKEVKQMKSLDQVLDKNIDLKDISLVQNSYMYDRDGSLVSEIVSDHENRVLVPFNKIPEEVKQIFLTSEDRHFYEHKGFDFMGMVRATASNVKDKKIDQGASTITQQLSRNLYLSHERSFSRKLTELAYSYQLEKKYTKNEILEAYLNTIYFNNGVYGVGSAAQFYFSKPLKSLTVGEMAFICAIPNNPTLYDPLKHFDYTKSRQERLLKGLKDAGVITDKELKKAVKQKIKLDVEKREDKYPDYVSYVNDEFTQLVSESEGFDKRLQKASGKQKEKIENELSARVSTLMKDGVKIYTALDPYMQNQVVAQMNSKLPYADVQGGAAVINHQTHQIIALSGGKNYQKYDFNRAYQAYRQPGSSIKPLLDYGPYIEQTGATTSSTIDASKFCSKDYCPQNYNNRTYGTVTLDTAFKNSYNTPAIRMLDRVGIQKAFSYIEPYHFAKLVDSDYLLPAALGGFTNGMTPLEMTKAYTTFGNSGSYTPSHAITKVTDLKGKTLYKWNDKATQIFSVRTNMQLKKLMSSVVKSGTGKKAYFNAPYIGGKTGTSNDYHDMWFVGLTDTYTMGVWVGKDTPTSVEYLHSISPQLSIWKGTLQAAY
Assay: Fluorescent whole cell β-lactam titration with Boc-FL readout, SDS-PAGE
Catalogue of molecules with associated log10 of IC50
# values: log10(IC50), units µM

Completed entries (count: 5):
COc1cccc(OC)c1C(=O)N[C@@H]1C(=O)N2[C@@H]1SC(C)(C)[C@@H]2C(=O)O : -0.54
CO[C@@]1(NC(=O)Cc2cccs2)C(=O)N2C(C(=O)O)=C(COC(N)=O)CS[C@@H]21 : -1.48
CCN1CCN(C(=O)N[C@@H](C(=O)N[C@@H]2C(=O)N3[C@@H]2SC(C)(C)[C@@H]3C(=O)O)c2ccccc2)C(=O)C1=O : -1.24
CC1=C(C(=O)O)N2C(=O)[C@@H](NC(=O)[C@H](N)c3ccccc3)[C@H]2SC1 : 2.86
CC1(C)S[C@@H]2[C@H](NC(=O)Cc3ccccc3)C(=O)N2[C@H]1C(=O)O : -1.57

Reported log10 of IC50 for CC1(C)S[C@@H]2[C@H](NC(=O)[C@H](N)c3ccccc3)C(=O)N2[C@H]1C(=O)O : what is it?
-1.97

And then NC(=O)c1cc[n+](CC2=C(C(=O)O)N3C(=O)[C@@H](NC(=O)[C@@H](c4ccccc4)S(=O)(=O)[O-])[C@H]3SC2)cc1 , what is it?
-0.65

And then Cc1onc(-c2ccccc2Cl)c1C(=O)N[C@@H]1C(=O)N2[C@@H]1SC(C)(C)[C@@H]2C(=O)O , what is it?
-1.30

----------
Target or system B. subtilis PY79: recorded MIC listed per item.
Give your result in µg/mL as a bare value.

Completed entries (count: 5):
C[C@H]1[C@H](NC(=O)/C(=N\OC(C)(C)C(=O)O)c2csc(N)n2)C(=O)N1S(=O)(=O)O : 16
CO[C@@]1(NC(=O)Cc2cccs2)C(=O)N2C(C(=O)O)=C(COC(N)=O)CS[C@@H]21 : 1
C[C@@H](O)[C@H]1C(=O)N2C(C(=O)O)=C(S[C@@H]3CN[C@H](CNS(N)(=O)=O)C3)[C@H](C)[C@H]12 : 0.0625
CO/N=C(\C(=O)N[C@@H]1C(=O)N2C(C(=O)O)=C(CSc3nc(=O)c(=O)[nH]n3C)CS[C@H]12)c1csc(N)n1 : 0.25
C[C@@H](O)[C@H]1C(=O)N2C(C(=O)O)=C([C@H]3CCCO3)S[C@H]12 : 0.125

Reported MIC for CC1(C)S[C@@H]2[C@H](NC(=O)Cc3ccccc3)C(=O)N2[C@H]1C(=O)O : what is it?
16

And then Cc1onc(-c2ccccc2Cl)c1C(=O)N[C@@H]1C(=O)N2[C@@H]1SC(C)(C)[C@@H]2C(=O)O , what is it?
0.125

And then CC1=C(C(=O)O)N2C(=O)[C@@H](NC(=O)[C@H](N)c3ccccc3)[C@H]2SC1 , what is it?
0.5

And then CO/N=C(\C(=O)N[C@@H]1C(=O)N2C(C(=O)O)=C(COC(C)=O)CS[C@H]12)c1csc(N)n1 , what is it?
0.0625

Entry source: paper PMC7784776
